Molecular target: T1, Cyno NRP-1 His (cynomolgus monkey, UniProt O14786 22-856 (human entry), limits assumed)
T1 construct: Recombinant monomeric protein; also called cynomolgus monkey NRP-1-His; cNRP-1; not shown: His tag
T1 chain: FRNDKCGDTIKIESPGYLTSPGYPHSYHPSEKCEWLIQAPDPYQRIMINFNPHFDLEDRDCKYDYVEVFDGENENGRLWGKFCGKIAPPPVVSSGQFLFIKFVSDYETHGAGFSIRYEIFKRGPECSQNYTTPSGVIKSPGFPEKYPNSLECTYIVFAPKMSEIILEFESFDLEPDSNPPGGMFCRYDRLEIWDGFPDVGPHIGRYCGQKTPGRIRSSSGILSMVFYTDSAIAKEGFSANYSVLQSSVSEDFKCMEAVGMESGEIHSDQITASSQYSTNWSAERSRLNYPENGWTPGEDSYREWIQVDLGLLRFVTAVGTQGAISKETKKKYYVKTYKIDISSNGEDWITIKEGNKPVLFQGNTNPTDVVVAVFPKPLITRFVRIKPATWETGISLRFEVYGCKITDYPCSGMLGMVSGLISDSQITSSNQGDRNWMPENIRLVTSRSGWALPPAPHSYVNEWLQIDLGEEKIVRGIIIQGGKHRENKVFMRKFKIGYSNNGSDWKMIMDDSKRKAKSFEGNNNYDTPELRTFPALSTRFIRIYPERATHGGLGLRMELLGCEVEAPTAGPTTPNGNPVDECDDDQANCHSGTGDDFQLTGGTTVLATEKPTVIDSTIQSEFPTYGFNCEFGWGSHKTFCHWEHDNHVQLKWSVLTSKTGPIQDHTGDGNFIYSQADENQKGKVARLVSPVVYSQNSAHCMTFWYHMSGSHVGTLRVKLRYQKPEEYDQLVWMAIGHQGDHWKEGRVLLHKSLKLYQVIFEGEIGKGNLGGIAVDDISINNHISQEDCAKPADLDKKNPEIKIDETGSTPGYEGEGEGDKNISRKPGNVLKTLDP
Test: BLI ForteBio, IgG1 N297A on AHQ sensor, 100 nM monomeric antigen, 1:1 fit
With a cut-off of 2 nM, any Kd strictly below it is called label 1; any Kd meeting it or above is called label 0.

MAB12 (antibody, V domains shown) VH: EVQLLESGGGLVQPGGSLRLSCAASGFTFSSVAMVWVRQAPGKGLEWVSAISGSGGATYYADSVEGRFTISRDNSKNTLYLQMNSLRAEDTAVYYCAKDPGYDSSRYYYSNYGMDVWGQGTTVTVSS VL: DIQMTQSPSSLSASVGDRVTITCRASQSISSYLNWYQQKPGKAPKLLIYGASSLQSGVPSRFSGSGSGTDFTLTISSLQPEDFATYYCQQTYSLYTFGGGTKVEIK | label 1

Report whether reported Kd is lower than 2 nM (strictly) for MAB3 (antibody, V domains shown) VH: QAQLVQSGAEVKKPGASVKVSCKASGYTFSRYYMHWVRQAPGQGLEWMGIINPLGGSTLYAQKFQGRVTMTRDTSTSTVYMELSSLRSEDTAVYYCARDLGYYGSGMHAWGQGTLVTVSS VL: DIQMTQSPSSVSASVGDRVTITCRASQGISRWLAWYQQKPGKAPKLLIYAASSLQSGVPSRFSGSGSGTDFTLTISSLQPEDFATYYCQQANLLPFTFGGGTKVEIK
label 1

Determine whether this binder shows Kd lower than 2 nM (ties excluded): MAB5 (antibody, V domains shown) VH: QVQLVQSGAEVKKPGASVKVSCKASGYTFTSYYMHWVRQAPGQGLEWMGIINPQGGDTSYAQKFQGRVTMTRDTSTSTVYMELSSLRSEDTAVYYCARDRGMYYASGFGPWGQGTLVTVSS VL: EIVMTQSPGTLSLSPGERATLSCRASQSVSSSYLAWYQQKPGQAPRLLIYGASNRATGIPDRFSGSGSGTDFTLTISRLEPEDFAVYYCQQLSSFPITFGGGTKVEIK
label 0

For this binder, is Kd lower than 2 nM? MAB13 (antibody, V domains shown) VH: QVQLQQWGAGLLKPSETLSLTCAVYGGSFRGYYWEWIRQPPGKGLEWIGEISHSGSTNYNPSLKSRVTISVDTSKNQFSLKLSSVTAADTAVYYCARARPYREPYGMDVWGQGTTVTVSS VL: DIQLTQSPSSVSASVGDRVTITCRASQDISSWLAWYQQKPGKAPKLLIYAASSLQSGVPSRFSGSGSGTDFTLTISSLQPEDFATYYCQQELAFPRTFGGGTKVEIK
label 1

Please check: Kd for MAB6 (antibody, V domains shown) VH: QVQLVQSGAKVKKPGASVKVSCKASGYTFTSYYMHWVRQVPGQGLEWMGIINPQGGDTSYAQKFQGRVTMTRDTSTSTVYMELSSLRSEDTAVYYCARDRGMYYASGFNPWGQGTLVTVSS VL: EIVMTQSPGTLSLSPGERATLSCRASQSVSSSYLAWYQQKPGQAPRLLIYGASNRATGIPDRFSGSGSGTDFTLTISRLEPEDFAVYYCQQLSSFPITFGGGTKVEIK , strictly under 2 nM or not?
label 0

In plain terms, does MAB4 (antibody, V domains shown) VH: QVQLVQSGAEVKKPGASVKVSCKASGYTFSRYYMHWVRQAPGQGLEWMGIINPLGGSTLYAQKFQGRVTMTRDTSTSTVYMELSSLRSEDTAVYYCARDLGYYGSGMHVWGQGTLVTVSS VL: DIQMTQSPSSVSASVGDRVTITCRASQGISRWLAWYQQKPGKAPKLLIYAASSLQSGVPSRFSGSGSGTDFTLTISSLQPEDFATYYCQQANLLPFTFGGGTKVEIK come in under 2 nM for Kd?
label 1

# check: Kd < 2 nM for MAB10 (antibody, V domains shown) VH: EVQLLESGGGLVQPGGSLRLSCAASGFTFSSVAMVWVRQAPGKGLEWVSAISGSGGATYYADSVKGRFTISRDNSKNTLYLQMNSLRAEDTAVYYCAKDPGYDSSRYYYSNYGMDVWGQGTTVTVSS VL: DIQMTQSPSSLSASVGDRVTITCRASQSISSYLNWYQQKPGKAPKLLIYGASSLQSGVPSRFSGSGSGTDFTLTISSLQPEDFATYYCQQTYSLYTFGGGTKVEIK
label 1

Is it true that Kd reported for MAB14 (antibody, V domains shown) VH: QVQLQQWGAGLLKPSETLSLTCAVYGGSFRGYYWEWSRQPPGKGLEWIGEISHSGSTNYNPSLKSRVTISVDTSKNQFSLKLSPVTAADTAVYYCARARPYREPYGMDVWGQGTTVTVSS VL: DIQLTQSPSSVSASVGDRVTITCRASQDISSWLAWYQQKPGKAPKLLIYAASSLQSGVPSRFSGSGSGTDFTLTISSLQPEDFATYYCQQELAFPRTFGGGTKVEIK is less than 2 nM?
label 1

Is Kd strictly under 2 nM for the entry MAB9 (antibody, V domains shown) VH: EVQLLESGGGLVQPGGSLRLSCAASGFTFKSYAMVWVRQAPGKGLEWVSIISGSGGATYYADSVKGRFTISRDNSKNTLYLQMNSLRAEDTAVYYCAKDPGYDSSRYYYSNYGMDVWGQGTTVTVSS VL: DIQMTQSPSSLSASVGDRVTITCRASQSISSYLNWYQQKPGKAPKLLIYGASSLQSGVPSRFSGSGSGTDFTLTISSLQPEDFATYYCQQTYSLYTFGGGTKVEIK ?
label 1

Decide: Kd of MAB1 (antibody, V domains shown) VH: QVQLVQSGAGVKKPGASVKVSCKASGYTFRSYYMLWVRQAPGQGLEWMGIIDPSDGSTSYAQKFQGRVTMTRDTPTSTVYMELSSLRSEDTAVYYCARGARRITGYGMDVWGQGTTVTVSS VL: DIQMTQSPSSVSASVGDRVTITCRASQGISSWLAWYQQKPGKAPKLLIYAASNLQSGVPSRFSGSGSGTDFTLTISSLQPEDFATYYCQQASVFPFTFGGGTKVEIK strictly below 2 nM?
label 0

Values compiled from patent US20190119389A1.
